# Lookup of reported Ratio keyed by entry
# Tgt: UniProt P55212
# Assay Info: Inhibition of recombinant MCH2 (unknown origin) assessed as ratio of irreversible rate constant K3 to dissociation constant of the reversible binding step Ki pre-incubated for 60 mins with Acetyl-Tyr-Val-Ala-Asp-amino-4-methylcoumarin substrate followed by enzyme addition by fluorescence based assay

C[C@H](NC(=O)C(=O)Nc1ccccc1C(C)(C)C)C(=O)N[C@@H](CC(=O)O)C(=O)COC(=O)c1c(Cl)cccc1Cl	6960 to 191000 M⁻¹ s⁻¹
CC(C)[C@H](NC(=O)C(=O)Nc1ccccc1F)C(=O)N[C@@H](CC(=O)O)C(=O)COc1c(F)c(F)cc(F)c1F	11200 M⁻¹ s⁻¹
C[C@H](NC(=O)C(=O)Nc1cccc2c1CCCC2)C(=O)N[C@@H](CC(=O)O)C(=O)COc1c(F)c(F)cc(F)c1F	64100 M⁻¹ s⁻¹
CC(C)[C@H](NC(=O)C(=O)NC1CCCc2ccccc21)C(=O)N[C@@H](CC(=O)O)C(=O)COc1c(F)c(F)cc(F)c1F (some centres not stated)	160000 M⁻¹ s⁻¹
C[C@H](NC(=O)C(=O)NC1CCCCC1)C(=O)N[C@@H](CC(=O)O)C(=O)COC(=O)c1c(Cl)cccc1Cl	655000 M⁻¹ s⁻¹
C[C@H](NC(=O)C(=O)Nc1cccc2c1CCCC2)C(=O)N[C@@H](CC(=O)O)C(=O)COC(=O)c1c(Cl)cccc1Cl	126000 to 264000 M⁻¹ s⁻¹
C[C@H](NC(=O)C(=O)Nc1cc(C(C)(C)C)ccc1C(C)(C)C)C(=O)N[C@@H](CC(=O)O)C(=O)COc1c(F)c(F)cc(F)c1F	192000 M⁻¹ s⁻¹
C[C@H](NC(=O)C(=O)Nc1ccccc1-c1ccccc1)C(=O)N[C@@H](CC(=O)O)C(=O)COP(=O)(c1ccccc1)c1ccccc1	317000 M⁻¹ s⁻¹

Summary for this compound, "C[C@H](NC(=O)C(=O)Nc1ccccc1C(C)(C)C)C(=O)N[C@@H](CC(=O)O)C(=O)COP(=O)(c1ccccc1)c1ccccc1" : Ratio is 275000 to 484000 M⁻¹ s⁻¹

Field Ratio (entry "C[C@H](NC(=O)C(=O)Nc1ccccc1Cl)C(=O)N[C@@H](CC(=O)O)C(=O)COP(=O)(c1ccccc1)c1ccccc1" ) reads 247000 to 373000 M⁻¹ s⁻¹

In plain terms, "CC(C)[C@H](NC(=O)C(=O)Nc1c(F)c(F)nc(F)c1F)C(=O)N[C@@H](CC(=O)O)C(=O)COc1c(F)c(F)cc(F)c1F" has a documented Ratio of 170000 M⁻¹ s⁻¹

# compound "CC(C)[C@H](NC(=O)C(=O)Nc1ccccc1)C(=O)N[C@@H](CC(=O)O)C(=O)COc1c(F)c(F)cc(F)c1F" ; its Ratio = 25500 M⁻¹ s⁻¹

Recorded Ratio (compound "C[C@H](NC(=O)C(=O)NCc1cccc2ccccc12)C(=O)N[C@@H](CC(=O)O)C(=O)COC(=O)c1c(Cl)cccc1Cl" ): 214000 M⁻¹ s⁻¹

----------
Reported Ratio values follow for various molecules
# Tgt: Caspase-6 (Homo sapiens) (UniProt P55212)
# Sequence (whole entry): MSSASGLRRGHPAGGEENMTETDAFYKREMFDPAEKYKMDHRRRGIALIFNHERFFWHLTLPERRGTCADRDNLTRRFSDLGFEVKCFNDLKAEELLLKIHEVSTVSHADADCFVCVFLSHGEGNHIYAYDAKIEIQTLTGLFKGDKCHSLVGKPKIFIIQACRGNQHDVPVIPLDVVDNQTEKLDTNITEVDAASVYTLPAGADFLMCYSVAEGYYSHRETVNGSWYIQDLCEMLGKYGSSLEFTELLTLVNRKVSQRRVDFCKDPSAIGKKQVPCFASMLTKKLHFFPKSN
# Assay Info: Inhibition of recombinant MCH2 (unknown origin) assessed as ratio of irreversible rate constant K3 to dissociation constant of the reversible binding step Ki pre-incubated for 60 mins with Acetyl-Tyr-Val-Ala-Asp-amino-4-methylcoumarin substrate followed by enzyme addition by fluorescence based assay
Reply numerically in M⁻¹ s⁻¹, unit not repeated.

Worked cases, answers included:
CC(C)[C@H](NC(=O)C(=O)Nc1ccccn1)C(=O)N[C@@H](CC(=O)O)C(=O)COc1c(F)c(F)cc(F)c1F	11600
C[C@H](NC(=O)C(=O)NCc1cccc2ccccc12)C(=O)N[C@@H](CC(=O)O)C(=O)COc1c(F)c(F)cc(F)c1F	335000
C[C@H](NC(=O)C(=O)Nc1cc(C(F)(F)F)ccc1N1CCOCC1)C(=O)N[C@@H](CC(=O)O)C(=O)COP(=O)(c1ccccc1)c1ccccc1	98500
CC(C)[C@H](NC(=O)C(=O)Nc1ccc(F)cc1)C(=O)N[C@@H](CC(=O)O)C(=O)COc1c(F)c(F)cc(F)c1F	121000
COc1ccccc1NC(=O)C(=O)N[C@H](C(=O)N[C@@H](CC(=O)O)C(=O)COc1c(F)c(F)cc(F)c1F)C(C)C	61500

Shift focus to the following entry.
Value of measured Ratio for the entry "C[C@H](NC(=O)C(=O)Nc1cc(C(F)(F)F)ccc1N1CCCC1)C(=O)N[C@@H](CC(=O)O)C(=O)COP(=O)(c1ccccc1)c1ccccc1" : 202000

----------
# Tgt: Caspase-8 (Homo sapiens)
# Assay Info: Inhibition of recombinant MCH5 (unknown origin) assessed as ratio of irreversible rate constant K3 to dissociation constant of the reversible binding step Ki pre-incubated for 60 mins with Acetyl-Tyr-Val-Ala-Asp-amino-4-methylcoumarin substrate followed by enzyme addition by fluorescence based assay
Entries and their measured Ratio follow.

In the examples that follow, each entry is paired with its recorded Ratio.
C[C@H](NC(=O)C(=O)Nc1cccc2c1CCCC2)C(=O)N[C@@H](CC(=O)O)C(=O)COC(=O)c1c(Cl)cccc1Cl	21200 to 1.92e+06 M⁻¹ s⁻¹
C[C@H](NC(=O)C(=O)NC12CC3CC(CC(C3)C1)C2)C(=O)N[C@@H](CC(=O)O)C(=O)COC(=O)c1c(Cl)cccc1Cl	18700 to 92600 M⁻¹ s⁻¹
C[C@H](NC(=O)C(=O)Nc1cccc2c1CCCC2)C(=O)N[C@@H](CC(=O)O)C(=O)COP(=O)(c1ccccc1)c1ccccc1	71800 to 1.15e+06 M⁻¹ s⁻¹

Could you now look at the following molecule, please?
The recorded Ratio for entry "C[C@H](NC(=O)C(=O)Nc1ccccc1I)C(=O)N[C@@H](CC(=O)O)C(=O)COC(=O)c1c(Cl)cccc1Cl" equals 337000 to 551000 M⁻¹ s⁻¹

----------
# Tgt: Caspase-3 (Homo sapiens)
# Assay Info: Inhibition of recombinant CPP32 (unknown origin) assessed as ratio of irreversible rate constant K3 to dissociation constant of the reversible binding step Ki pre-incubated for 60 mins with Acetyl-Tyr-Val-Ala-Asp-amino-4-methylcoumarin substrate followed by enzyme addition by fluorescence based assay
Under this convention, TRUE denotes Ratio strictly below 70000 M⁻¹ s⁻¹ and FALSE denotes Ratio at or above 70000 M⁻¹ s⁻¹.

Please review the entries below; each comes with its answer.
C[C@H](NC(=O)C(=O)Nc1ccccc1I)C(=O)N[C@@H](CC(=O)O)C(=O)COP(=O)(c1ccccc1)c1ccccc1	FALSE
CC(C)[C@H](NC(=O)C(=O)NC12CC3CC(CC(C3)C1)C2)C(=O)N[C@@H](CC(=O)O)C(=O)COc1c(F)c(F)cc(F)c1F	TRUE
CC(C)[C@H](NC(=O)C(=O)Nc1cccc2ccccc12)C(=O)N[C@@H](CC(=O)O)C(=O)COc1cccc2ccccc12	FALSE
CC(C)[C@H](NC(=O)C(=O)Nc1ccccc1C(C)(C)C)C(=O)N[C@@H](CC(=O)O)C(=O)COc1c(F)c(F)cc(F)c1F	TRUE
CC(C)[C@H](NC(=O)C(=O)Nc1ccccc1I)C(=O)N[C@@H](CC(=O)O)C(=O)COc1c(F)c(F)cc(F)c1F	TRUE

Lab note: next molecule to report on.
In the record for "C[C@H](NC(=O)C(=O)Nc1ccc(F)cc1)C(=O)N[C@@H](CC(=O)O)C(=O)COP(=O)(c1ccccc1)c1ccccc1" , is Ratio less than 70000 M⁻¹ s⁻¹?
FALSE

----------
Each entry below lists one item and its recorded Ratio value.
# Tgt: Caspase-6 (Homo sapiens) (UniProt P55212)
# Sequence (whole entry): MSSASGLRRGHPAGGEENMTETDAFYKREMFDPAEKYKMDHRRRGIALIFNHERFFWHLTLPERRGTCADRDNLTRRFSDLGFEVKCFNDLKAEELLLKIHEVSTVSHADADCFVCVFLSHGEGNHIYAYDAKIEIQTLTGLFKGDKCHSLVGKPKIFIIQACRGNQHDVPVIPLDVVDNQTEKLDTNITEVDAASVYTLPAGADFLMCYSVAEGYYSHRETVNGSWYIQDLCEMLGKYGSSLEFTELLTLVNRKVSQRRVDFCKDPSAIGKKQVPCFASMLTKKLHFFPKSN
# Assay Info: Inhibition of recombinant MCH2 (unknown origin) assessed as ratio of irreversible rate constant K3 to dissociation constant of the reversible binding step Ki pre-incubated for 60 mins with Acetyl-Tyr-Val-Ala-Asp-amino-4-methylcoumarin substrate followed by enzyme addition by fluorescence based assay

A selection of reference data follows.
C[C@H](NC(=O)C(=O)Nc1ccccc1Cl)C(=O)N[C@@H](CC(=O)O)C(=O)COC(=O)c1c(Cl)cccc1Cl	281000 to 745000 M⁻¹ s⁻¹
C[C@H](NC(=O)C(=O)Nc1ccccc1-c1ccccc1)C(=O)N[C@@H](CC(=O)O)C(=O)COC(=O)c1c(Cl)cccc1Cl	219000 M⁻¹ s⁻¹
CC(C)[C@H](NC(=O)C(=O)Nc1ccccc1Br)C(=O)N[C@@H](CC(=O)O)C(=O)COc1c(F)c(F)cc(F)c1F	230000 M⁻¹ s⁻¹

Sure, the documented Ratio for "CC(C)[C@H](NC(=O)C(=O)Nc1cc(C(C)(C)C)ccc1C(C)(C)C)C(=O)N[C@@H](CC(=O)O)C(=O)COc1c(F)c(F)cc(F)c1F" is 8230 M⁻¹ s⁻¹

Cited source for all entries: ChEMBL document CHEMBL3880422
